Reference source for all entries: patent US20160220569A1

Protocol Summary: 14-day oral gavage toxicokinetic study in rats
Format: in vivo
Setup Conditions: both sexes, rat, plasma, po, 5 mg/kg, oral 5 mg/kg, Study Day 14, Overall
Property Label: Tmax
Answer shape: numeric part, then the unit.

## Input Note down Tmax recorded for CN1CCN(c2ccc(Nc3ncc4cc5n(c4n3)C3(CCCCC3)CNC5=O)nc2)CC1
## Output 2 h

---

Protocol Summary: 14-day oral gavage toxicokinetic study in rats
Format: in vivo
Setup Conditions: male, rat, plasma, po, 30 mg/kg, Individual Compound 1 Plasma Concentration, rats, daily oral 30 mg/kg, Day 14, Male, 4 h
Property Label: concentration at 4 h (ng/mL)
Express the result in ng/mL but write the number alone.

## Input Tell me its concentration at 4 h given CN1CCN(c2ccc(Nc3ncc4cc5n(c4n3)C3(CCCCC3)CNC5=O)nc2)CC1 as the entry.
## Output 2080
